Data provenance is the supplement of paper PMC9233669.

System: biotinyl-Phe-oxazolone
experimentDescription: self-aminoacylation, catalytic enhancement (BFO) (fold over background); higher = more active; k-Seq, kA / k0A0; sequences stand for … in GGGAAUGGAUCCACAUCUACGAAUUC…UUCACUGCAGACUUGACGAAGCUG
This sample holds only a part of the variants without activity.
Lab note: compare self-aminoacylation against 4. Equal or greater, write Condition met. Smaller, write Condition not met.

>>> df
                            primarysequence            systemtested              label
0  CAACUUCAAACAAGCGGUCUG [Fam1A.1 aminoacylation ribozyme variant]  biotinyl-Phe-oxazolone  Condition not met
1  AAGUUUGCUUAUGGUCGCAAG [Fam3.1 aminoacylation ribozyme variant]  biotinyl-Phe-oxazolone  Condition not met
2  AAGUUCGCUAAUAGUCGGAAG [Fam3.1 aminoacylation ribozyme variant]  biotinyl-Phe-oxazolone  Condition not met
3  AUUACCCUGGUCAUCGAGUUG [Fam2.1 aminoacylation ribozyme variant]  biotinyl-Phe-oxazolone  Condition not met
4  AUUACCCUGAACAUCGAGUGA [Fam2.1 aminoacylation ribozyme variant]  biotinyl-Phe-oxazolone      Condition met
5  AUGAGCCUGGUCAUCGAGUGA [Fam2.1 aminoacylation ribozyme variant]  biotinyl-Phe-oxazolone      Condition met
6  AUUCACCUAGUUCAUCGGGGG [Fam2.2 aminoacylation ribozyme variant]  biotinyl-Phe-oxazolone      Condition met

---

# self-aminoacylation listing for each entry below
System: biotinyl-Met-oxazolone
experimentDescription: self-aminoacylation, catalytic enhancement (BMO) (fold over background); higher = more active; k-Seq, kA / k0A0; sequences stand for … in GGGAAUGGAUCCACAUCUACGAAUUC…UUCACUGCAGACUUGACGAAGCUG
Variants at the floor of the assay were thinned out.
endpointLabel: self-aminoacylation

>>> df
                             primarysequence  reading
 0  CUACUUCAAACAAUCGGGCCG [Fam1A.1 aminoacylation ribozyme variant]     1.19
 1  CUACUUGAAUCAAUCGGUCUG [Fam1A.1 aminoacylation ribozyme variant]    0.811
 2  CCACACUUCGAGCAUUCGGUC [Fam1B.1 aminoacylation ribozyme variant]     1.67
 3  AUUCACCCAGGUCAACGGGUG [Fam2.2 aminoacylation ribozyme variant]     3.24
 4  AAGCUUGCUAAUAGUCGGAAG [Fam3.1 aminoacylation ribozyme variant]     1.34
 5  AUUACCCUGGUCUUCGAGUGA [Fam2.1 aminoacylation ribozyme variant]     5.36
 6  CCACCCUUCAAGCAAUCGGUC [Fam1B.1 aminoacylation ribozyme variant]    0.936
 7  CUACUUCAAAUAAUCGCUCUG [Fam1A.1 aminoacylation ribozyme variant]    0.562
 8  CUACUUAAAACAAUCGGUCGG [Fam1A.1 aminoacylation ribozyme variant]    0.786
 9  CCACACUUCAAGCAUGCGGUC [Fam1B.1 aminoacylation ribozyme variant]     1.57
10  CUACUACAAAGAAUCGGUCUG [Fam1A.1 aminoacylation ribozyme variant]    0.788
11  AUUACGCUGAUCAUCGAGUGA [Fam2.1 aminoacylation ribozyme variant]     5.61
12  CUACUUCAAACGAUCGGUCUG [Fam1A.1 aminoacylation ribozyme variant]    0.677

---

Test system: biotinyl-Val-oxazolone
experimentDescription: self-aminoacylation, catalytic enhancement (BVO) (fold over background); higher = more active; k-Seq, kA / k0A0; sequences stand for … in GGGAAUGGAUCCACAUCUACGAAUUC…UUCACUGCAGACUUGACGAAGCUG
Fewer inactive variants are shown than the library holds.
endpointLabel: self-aminoacylation

                            primarysequence            systemtested        endpointlabel  reading
0  AUUCACCUAUUUCAUCGGGUG [Fam2.2 aminoacylation ribozyme variant]  biotinyl-Val-oxazolone  self-aminoacylation     2.02
1  CUACUUCAACCCAUCGGUCUG [Fam1A.1 aminoacylation ribozyme variant]  biotinyl-Val-oxazolone  self-aminoacylation    0.983
2  AUUAACCUAGGUCAUAGGGUG [Fam2.2 aminoacylation ribozyme variant]  biotinyl-Val-oxazolone  self-aminoacylation     1.36
3  AAGUUUGCUCAUAGUCCCAAG [Fam3.1 aminoacylation ribozyme variant]  biotinyl-Val-oxazolone  self-aminoacylation     1.06
4  CCACACUUCAACCAAUCCGUC [Fam1B.1 aminoacylation ribozyme variant]  biotinyl-Val-oxazolone  self-aminoacylation    0.867
5  ACACACUUCAAACAAUCGGUC [Fam1B.1 aminoacylation ribozyme variant]  biotinyl-Val-oxazolone  self-aminoacylation     1.79
6  AUUACCCUGUUCAUCGUGUGA [Fam2.1 aminoacylation ribozyme variant]  biotinyl-Val-oxazolone  self-aminoacylation     3.04

---

Tested on: biotinyl-Val-oxazolone
experimentDescription: self-aminoacylation, catalytic enhancement (BVO) (fold over background); higher = more active; k-Seq, kA / k0A0; sequences stand for … in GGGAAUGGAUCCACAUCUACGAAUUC…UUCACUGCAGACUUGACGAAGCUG
This sample holds only a part of the variants without activity.
# self-aminoacylation listing for each entry below
endpointLabel: self-aminoacylation

                             primarysequence        endpointlabel  reading
 0  CCACACUCGAAGCAAUCGGUC [Fam1B.1 aminoacylation ribozyme variant]  self-aminoacylation     1.11
 1  AUUCCCCUAGGUCAUCGGGGG [Fam2.2 aminoacylation ribozyme variant]  self-aminoacylation     10.2
 2  AAGUUUACUAAUAGACGCAAG [Fam3.1 aminoacylation ribozyme variant]  self-aminoacylation     1.03
 3  AUUCCCCUGGUCAUCGAGCGA [Fam2.1 aminoacylation ribozyme variant]  self-aminoacylation     2.17
 4  UUUACCCUGGUCAUCGGGUGA [Fam2.1 aminoacylation ribozyme variant]  self-aminoacylation     16.7
 5  GUUCACCUAGGUCAUCAGGUG [Fam2.2 aminoacylation ribozyme variant]  self-aminoacylation     1.35
 6  CUUCACCCAGGUCAUCGGGUG [Fam2.2 aminoacylation ribozyme variant]  self-aminoacylation     3.34
 7  AUUCCUCUGGUCAUCGAGUGA [Fam2.1 aminoacylation ribozyme variant]  self-aminoacylation     4.02
 8  CCACACAACAAGCAAUCGGUC [Fam1B.1 aminoacylation ribozyme variant]  self-aminoacylation    0.899
 9  CCACUCUUCAAGCAGUCGGUC [Fam1B.1 aminoacylation ribozyme variant]  self-aminoacylation      1.1
10  AAGGUGGCUAAUAGUCGCAAG [Fam3.1 aminoacylation ribozyme variant]  self-aminoacylation     1.41
11  CUACUUCAAACAAUCAGUAUG [Fam1A.1 aminoacylation ribozyme variant]  self-aminoacylation    0.819
12  AUCCACCUAGGUCAUCGGGGG [Fam2.2 aminoacylation ribozyme variant]  self-aminoacylation     2.77

---

Tested on: biotinyl-Val-oxazolone
experimentDescription: self-aminoacylation, catalytic enhancement (BVO) (fold over background); higher = more active; k-Seq, kA / k0A0; sequences stand for … in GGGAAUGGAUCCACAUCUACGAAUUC…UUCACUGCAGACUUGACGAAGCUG
Fewer inactive variants are shown than the library holds.
endpointLabel: self-aminoacylation

                            primarysequence        endpointlabel  reading
0  CUACUUGAAUCAAUCGGUCUG [Fam1A.1 aminoacylation ribozyme variant]  self-aminoacylation    0.782
1  CCGCACUACAAGCAAUCGGUC [Fam1B.1 aminoacylation ribozyme variant]  self-aminoacylation     1.32
2  AUGUGUGCUAAUAGUCGCAAG [Fam3.1 aminoacylation ribozyme variant]  self-aminoacylation     1.37
3  GAGUUUGCUAGUAGUCGCAAG [Fam3.1 aminoacylation ribozyme variant]  self-aminoacylation     1.04
4  CCACACUUCAAGCAAUUGAUC [Fam1B.1 aminoacylation ribozyme variant]  self-aminoacylation    0.538
5  AAGUUUGCUAAUUGUGGCAAG [Fam3.1 aminoacylation ribozyme variant]  self-aminoacylation    0.817
6  CCCCACUUCAAACAAUCGGUC [Fam1B.1 aminoacylation ribozyme variant]  self-aminoacylation     2.15
7  AUUCACUUAGGUCAUCGGGUA [Fam2.2 aminoacylation ribozyme variant]  self-aminoacylation     2.15

---

System: biotinyl-Met-oxazolone
experimentDescription: self-aminoacylation, catalytic enhancement (BMO) (fold over background); higher = more active; k-Seq, kA / k0A0; sequences stand for … in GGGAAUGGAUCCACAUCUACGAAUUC…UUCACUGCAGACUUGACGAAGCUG
Fewer inactive variants are shown than the library holds.
Class definitions on self-aminoacylation: L = under 0.9, M = from 0.9 up to 3, H = 3 and over

In [3]: df
Out[3]:
                            primarysequence  label
0  AAGUGUGCUACUAGUCGCAAG [Fam3.1 aminoacylation ribozyme variant]      M
1  AUUCACCUCGGGCAUCGGGUG [Fam2.2 aminoacylation ribozyme variant]      H
2  AUUACCCUGUUCAUGGAGUGA [Fam2.1 aminoacylation ribozyme variant]      H
3  CCACACUUCAAGGUAUCGGUC [Fam1B.1 aminoacylation ribozyme variant]      M
4  CUAUUUCAAAAAAUCGGUCUG [Fam1A.1 aminoacylation ribozyme variant]      M
5  CGACACUUCAAGCAAUUGGUC [Fam1B.1 aminoacylation ribozyme variant]      L
6  AAGUUUGCUAAUAGGGGCAAG [Fam3.1 aminoacylation ribozyme variant]      L
7  UUUACCCUGGUCAUCGGGUGA [Fam2.1 aminoacylation ribozyme variant]      H
8  CCACACUUCAAGAUAUCGGUC [Fam1B.1 aminoacylation ribozyme variant]      L
9  AUUCACCUAGGUCAACUGGUG [Fam2.2 aminoacylation ribozyme variant]      M
